Test system: Jurkat
assay-method-text: Antiproliferative activity against human Jurkat cells assessed as reduction in cell proliferation measured after 48 hrs by MTT assay
Format: functional, cell-based

compound: CC[C@@]1(O)C(=O)OCc2c1cc1n(c2=O)Cc2cc3ccccc3nc2-1
IC50, µM: 22

compound: O=C1Nc2ccccc2C12NC(Cc1ccc(O)cc1)C([N+](=O)[O-])C2c1ccc(Cl)cc1 (stereo not drawn)
IC50, µM: 51.5

compound: O=C1Nc2ccc(OC(F)(F)F)cc2C12NC(Cc1ccc(O)cc1)C([N+](=O)[O-])C2c1ccc(Br)cc1 (stereo not drawn)
IC50, µM: 44.1

compound: O=C1Nc2ccccc2C12NC(Cc1ccc(O)cc1)C([N+](=O)[O-])C2c1cccc([N+](=O)[O-])c1 (stereo not drawn)
IC50, µM: 48.6

compound: O=C1Nc2ccc(OC(F)(F)F)cc2C12NC(Cc1ccc(O)cc1)C([N+](=O)[O-])C2c1ccc(Cl)cc1 (stereo not drawn)
IC50, µM: 44.8

compound: O=C1Nc2ccc(OC(F)(F)F)cc2C12NC(Cc1ccc(O)cc1)C([N+](=O)[O-])C2c1cccc([N+](=O)[O-])c1 (stereo not drawn)
IC50, µM: 50.1

compound: O=C1Nc2ccccc2C12NC(Cc1ccc(O)cc1)C([N+](=O)[O-])C2c1ccccc1 (stereo not drawn)
IC50, µM: 61.6

compound: Cc1ccc(C2C([N+](=O)[O-])C(Cc3ccc(O)cc3)NC23C(=O)Nc2ccccc23)cc1 (stereo not drawn)
IC50, µM: 47.8

compound: COc1ccc(C2C([N+](=O)[O-])C(Cc3ccc(O)cc3)NC23C(=O)Nc2ccccc23)cc1 (stereo not drawn)
IC50, µM: 47.5

compound: Cc1ccc(C2C([N+](=O)[O-])C(Cc3ccc(O)cc3)NC23C(=O)Nc2ccc(OC(F)(F)F)cc23)cc1 (stereo not drawn)
IC50, µM: 42.9

compound: O=C1Nc2ccccc2C12NC(Cc1ccc(O)cc1)C([N+](=O)[O-])C2c1ccc(Br)cc1 (stereo not drawn)
IC50, µM: 43.2

compound: COc1ccc(C2C([N+](=O)[O-])C(Cc3ccc(O)cc3)NC23C(=O)Nc2ccc(OC(F)(F)F)cc23)cc1 (stereo not drawn)
IC50, µM: 42

compound: O=C1Nc2ccc(OC(F)(F)F)cc2C12NC(Cc1ccc(O)cc1)C([N+](=O)[O-])C2c1ccccc1 (stereo not drawn)
IC50, µM: 45

* * *

Tested on: A549
assay-method-text: Antiproliferative activity against human A549 cells assessed as reduction in cell proliferation measured after 48 hrs by MTT assay
Assay type: functional, cell-based
protocol-conditions: A549, 48 h
Decision: IC50 beneath 60 µM gives condition met; IC50 meeting or exceeding 60 µM gives condition not met.

compound: O=C1Nc2ccccc2C12NC(Cc1ccc(O)cc1)C([N+](=O)[O-])C2c1ccc(Br)cc1 (stereo not drawn)
system-tested: A549
category: condition met

compound: Cc1ccc(C2C([N+](=O)[O-])C(Cc3ccc(O)cc3)NC23C(=O)Nc2ccc(OC(F)(F)F)cc23)cc1 (stereo not drawn)
system-tested: A549
category: condition met

compound: O=C1Nc2ccccc2C12NC(Cc1ccc(O)cc1)C([N+](=O)[O-])C2c1ccccc1 (stereo not drawn)
system-tested: A549
category: condition not met

compound: Cc1ccc(C2C([N+](=O)[O-])C(Cc3ccc(O)cc3)NC23C(=O)Nc2ccccc23)cc1 (stereo not drawn)
system-tested: A549
category: condition met

compound: O=C1Nc2ccc(OC(F)(F)F)cc2C12NC(Cc1ccc(O)cc1)C([N+](=O)[O-])C2c1ccc(Cl)cc1 (stereo not drawn)
system-tested: A549
category: condition met

compound: O=C1Nc2ccc(OC(F)(F)F)cc2C12NC(Cc1ccc(O)cc1)C([N+](=O)[O-])C2c1ccccc1 (stereo not drawn)
system-tested: A549
category: condition met

* * *

IC50 overview
Test system: A549
assay-method-text: Antiproliferative activity against human A549 cells assessed as reduction in cell proliferation measured after 48 hrs by MTT assay
Type: functional, cell-based
protocol-conditions: A549, 48 h
readout-type: IC50 (µM)

compound: COc1ccc(C2C([N+](=O)[O-])C(Cc3ccc(O)cc3)NC23C(=O)Nc2ccccc23)cc1 (stereo not given)
system-tested: A549
readout-type: IC50
experimental-result: 47.8
--
compound: COc1ccc(C2C([N+](=O)[O-])C(Cc3ccc(O)cc3)NC23C(=O)Nc2ccc(OC(F)(F)F)cc23)cc1 (stereo not given)
system-tested: A549
readout-type: IC50
experimental-result: 41.6
--
compound: O=C1Nc2ccc(OC(F)(F)F)cc2C12NC(Cc1ccc(O)cc1)C([N+](=O)[O-])C2c1ccc(Br)cc1 (stereo not given)
system-tested: A549
readout-type: IC50
experimental-result: 37.2
--
compound: O=C1Nc2ccccc2C12NC(Cc1ccc(O)cc1)C([N+](=O)[O-])C2c1cccc([N+](=O)[O-])c1 (stereo not given)
system-tested: A549
readout-type: IC50
experimental-result: 117
--
compound: CC[C@@]1(O)C(=O)OCc2c1cc1n(c2=O)Cc2cc3ccccc3nc2-1 [CAMPTOTHECIN]
system-tested: A549
readout-type: IC50
experimental-result: 32.1
